Test system: NCI-H1417 complex spheroids, growth % test/control
assay_remarks: Anticancer human tumor NCI-H1417 cell line growth inhibition [Asc];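 further: spheroids exposed to compounds for 7 days; 100% = DMSO vehicle control wells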
test_context: second compound 10 µM; first compound 1 µM; hits give low values
reported_property: viability, T/C (%)
Numbers only, in %.

Here's what some known entries look like.
>>> quantitative_result("CCN1CCN(Cc2ccc(Nc3ncc(F)c(-c4cc(F)c5nc(C)n(C(C)C)c5c4)n3)nc2)CC1 + Cc1c(S(C)(=O)=O)c(-c2cc(F)cc(N3CCN(c4ccc(NS(=O)(=O)c5ccc(NC(CCN6CCC(C(=O)OCCCP(=O)(O)O)CC6)CSc6ccccc6)c(S(=O)(=O)C(F)(F)F)c5)cc4)CC3)c2)c(-c2ccc(Cl)cc2)n1C(C)C")
2.79
>>> quantitative_result("COc1c(OCCCN2CCOCC2)ccc2c3n(c(=NC(=O)c4cnc(N)nc4)nc12)CCN3 + Cc1c(S(C)(=O)=O)c(-c2cc(F)cc(N3CCN(c4ccc(NS(=O)(=O)c5ccc(NC(CCN6CCC(C(=O)OCCCP(=O)(O)O)CC6)CSc6ccccc6)c(S(=O)(=O)C(F)(F)F)c5)cc4)CC3)c2)c(-c2ccc(Cl)cc2)n1C(C)C")
0.23
>>> quantitative_result("CNC(C)C(=O)NC1CN(S(=O)(=O)c2cccc(S(=O)(=O)N3CCC4CCC(C(=O)NC(c5ccccc5)c5ccccc5)N4C(=O)C(NC(=O)C(C)NC)C3)c2)CCC2CCC(C(=O)NC(c3ccccc3)c3ccccc3)N2C1=O (stereo not given) + Cc1c(S(C)(=O)=O)c(-c2cc(F)cc(N3CCN(c4ccc(NS(=O)(=O)c5ccc(NC(CCN6CCC(C(=O)OCCCP(=O)(O)O)CC6)CSc6ccccc6)c(S(=O)(=O)C(F)(F)F)c5)cc4)CC3)c2)c(-c2ccc(Cl)cc2)n1C(C)C")
1.47

Batch of 2 compounds: report viability, T/C for each.
1. O=C(c1ccc(F)c(F)c1Nc1ccc(I)cc1F)N1CC(O)([C@@H]2CCCCN2)C1 + Cc1c(S(C)(=O)=O)c(-c2cc(F)cc(N3CCN(c4ccc(NS(=O)(=O)c5ccc(NC(CCN6CCC(C(=O)OCCCP(=O)(O)O)CC6)CSc6ccccc6)c(S(=O)(=O)C(F)(F)F)c5)cc4)CC3)c2)c(-c2ccc(Cl)cc2)n1C(C)C
2. C#Cc1c(F)ccc2cc(O)cc(-c3ncc4c(N5CC6CCC(C5)N6)nc(OCC56CCCN5CC(F)C6)nc4c3F)c12 (stereo not given) + Cc1c(S(C)(=O)=O)c(-c2cc(F)cc(N3CCN(c4ccc(NS(=O)(=O)c5ccc(NC(CCN6CCC(C(=O)OCCCP(=O)(O)O)CC6)CSc6ccccc6)c(S(=O)(=O)C(F)(F)F)c5)cc4)CC3)c2)c(-c2ccc(Cl)cc2)n1C(C)C

0.32
1.68

----------
Test system: NCI-H1417 complex spheroids, growth % test/control
assay_remarks: Anticancer human tumor NCI-H1417 cell line growth inhibition [Asc]; active = viability on the fitted dose curve at most 10% of control; inactive = the rest;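 further: spheroids exposed to compounds for 7 days; 100% = DMSO vehicle control wells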
test_context: second compound 1 µM; first compound 1 µM
Response enum: active, inactive

>>> assigned_category("CCN1CCN(Cc2ccc(Nc3ncc(F)c(-c4cc(F)c5nc(C)n(C(C)C)c5c4)n3)nc2)CC1 + CNC(C)C(=O)NC1CN(S(=O)(=O)c2cccc(S(=O)(=O)N3CCC4CCC(C(=O)NC(c5ccccc5)c5ccccc5)N4C(=O)C(NC(=O)C(C)NC)C3)c2)CCC2CCC(C(=O)NC(c3ccccc3)c3ccccc3)N2C1=O")
"inactive"
>>> assigned_category("CNC(C)C(=O)NC1CN(S(=O)(=O)c2cccc(S(=O)(=O)N3CCC4CCC(C(=O)NC(c5ccccc5)c5ccccc5)N4C(=O)C(NC(=O)C(C)NC)C3)c2)CCC2CCC(C(=O)NC(c3ccccc3)c3ccccc3)N2C1=O (stereo unspecified) + Cc1c(S(C)(=O)=O)c(-c2cc(F)cc(N3CCN(c4ccc(NS(=O)(=O)c5ccc(NC(CCN6CCC(C(=O)OCCCP(=O)(O)O)CC6)CSc6ccccc6)c(S(=O)(=O)C(F)(F)F)c5)cc4)CC3)c2)c(-c2ccc(Cl)cc2)n1C(C)C")
"active"
>>> assigned_category("O=C(c1cc(Cc2n[nH]c(=O)c3ccccc23)ccc1F)N1CCN(C(=O)C2CC2)CC1 + CNC(C)C(=O)NC1CN(S(=O)(=O)c2cccc(S(=O)(=O)N3CCC4CCC(C(=O)NC(c5ccccc5)c5ccccc5)N4C(=O)C(NC(=O)C(C)NC)C3)c2)CCC2CCC(C(=O)NC(c3ccccc3)c3ccccc3)N2C1=O")
"inactive"

What is the recorded call for this compound in the test? CCN1CCN(Cc2ccc(Nc3ncc(F)c(-c4cc(F)c5nc(C)n(C(C)C)c5c4)n3)nc2)CC1 + Cc1c(S(C)(=O)=O)c(-c2cc(F)cc(N3CCN(c4ccc(NS(=O)(=O)c5ccc(NC(CCN6CCC(C(=O)OCCCP(=O)(O)O)CC6)CSc6ccccc6)c(S(=O)(=O)C(F)(F)F)c5)cc4)CC3)c2)c(-c2ccc(Cl)cc2)n1C(C)C
active

Hi, do you know how C#Cc1c(F)ccc2cc(O)cc(-c3ncc4c(N5CC6CCC(C5)N6)nc(OCC56CCCN5CC(F)C6)nc4c3F)c12 (stereo unspecified) + Cc1c(S(C)(=O)=O)c(-c2cc(F)cc(N3CCN(c4ccc(NS(=O)(=O)c5ccc(NC(CCN6CCC(C(=O)OCCCP(=O)(O)O)CC6)CSc6ccccc6)c(S(=O)(=O)C(F)(F)F)c5)cc4)CC3)c2)c(-c2ccc(Cl)cc2)n1C(C)C came out in this test?
active

Please indicate how the test categorized COc1c(OCCCN2CCOCC2)ccc2c3n(c(=NC(=O)c4cnc(N)nc4)nc12)CCN3 + Cc1c(S(C)(=O)=O)c(-c2cc(F)cc(N3CCN(c4ccc(NS(=O)(=O)c5ccc(NC(CCN6CCC(C(=O)OCCCP(=O)(O)O)CC6)CSc6ccccc6)c(S(=O)(=O)C(F)(F)F)c5)cc4)CC3)c2)c(-c2ccc(Cl)cc2)n1C(C)C .
active

----------
System: NCI-H1417 complex spheroids, growth % test/control
assay_remarks: Anticancer human tumor NCI-H1417 cell line growth inhibition [Asc];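 further: spheroids exposed to compounds for 7 days; 100% = DMSO vehicle control wells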
test_context: second compound 3 µM; first compound 0.1 µM; hits give low values
reported_property: viability, T/C (%)
Numbers only, in %.

>>> quantitative_result("CNC(C)C(=O)NC1CN(S(=O)(=O)c2cccc(S(=O)(=O)N3CCC4CCC(C(=O)NC(c5ccccc5)c5ccccc5)N4C(=O)C(NC(=O)C(C)NC)C3)c2)CCC2CCC(C(=O)NC(c3ccccc3)c3ccccc3)N2C1=O (stereo not given) + CCN1C(C(=O)NC23CCC(C(=O)O)(CC2)CC3)C(c2cccc(Cl)c2F)C2(C(=O)Nc3cc(Cl)ccc32)C12CCCCC2")
90.8
>>> quantitative_result("C=C(F)C(=O)N1CCN(c2nc(OCC3CCCN3C)nc3c2CCN(c2cccc4cccc(Cl)c24)C3)CC1CC#N (stereo not given) + CCN1C(C(=O)NC23CCC(C(=O)O)(CC2)CC3)C(c2cccc(Cl)c2F)C2(C(=O)Nc3cc(Cl)ccc32)C12CCCCC2")
89.9

Hi there! I need viability, T/C for each item below, if you can.
1. O=C(c1ccc(F)c(F)c1Nc1ccc(I)cc1F)N1CC(O)([C@@H]2CCCCN2)C1 + CCN1C(C(=O)NC23CCC(C(=O)O)(CC2)CC3)C(c2cccc(Cl)c2F)C2(C(=O)Nc3cc(Cl)ccc32)C12CCCCC2
2. NC1CCC(NC2CC2c2ccccc2)CC1 (stereo not given) + CCN1C(C(=O)NC23CCC(C(=O)O)(CC2)CC3)C(c2cccc(Cl)c2F)C2(C(=O)Nc3cc(Cl)ccc32)C12CCCCC2
3. C#Cc1c(F)ccc2cc(O)cc(-c3ncc4c(N5CC6CCC(C5)N6)nc(OCC56CCCN5CC(F)C6)nc4c3F)c12 (stereo not given) + CCN1C(C(=O)NC23CCC(C(=O)O)(CC2)CC3)C(c2cccc(Cl)c2F)C2(C(=O)Nc3cc(Cl)ccc32)C12CCCCC2
4. C=CC(=O)N1CCN(c2nc(=O)n(-c3c(C)ccnc3C(C)C)c3nc(-c4c(O)cccc4F)c(F)cc23)C(C)C1 (stereo not given) + CCN1C(C(=O)NC23CCC(C(=O)O)(CC2)CC3)C(c2cccc(Cl)c2F)C2(C(=O)Nc3cc(Cl)ccc32)C12CCCCC2
5. CCN1CCN(Cc2ccc(Nc3ncc(F)c(-c4cc(F)c5nc(C)n(C(C)C)c5c4)n3)nc2)CC1 + CCN1C(C(=O)NC23CCC(C(=O)O)(CC2)CC3)C(c2cccc(Cl)c2F)C2(C(=O)Nc3cc(Cl)ccc32)C12CCCCC2
6. O=C(c1cc(Cc2n[nH]c(=O)c3ccccc23)ccc1F)N1CCN(C(=O)C2CC2)CC1 + CCN1C(C(=O)NC23CCC(C(=O)O)(CC2)CC3)C(c2cccc(Cl)c2F)C2(C(=O)Nc3cc(Cl)ccc32)C12CCCCC2
7. Cn1ncnc1[C@H]1c2n[nH]c(=O)c3cc(F)cc(c23)N[C@@H]1c1ccc(F)cc1 + CCN1C(C(=O)NC23CCC(C(=O)O)(CC2)CC3)C(c2cccc(Cl)c2F)C2(C(=O)Nc3cc(Cl)ccc32)C12CCCCC2
8. COc1c(OCCCN2CCOCC2)ccc2c3n(c(=NC(=O)c4cnc(N)nc4)nc12)CCN3 + CCN1C(C(=O)NC23CCC(C(=O)O)(CC2)CC3)C(c2cccc(Cl)c2F)C2(C(=O)Nc3cc(Cl)ccc32)C12CCCCC2

1. 89
2. 67.5
3. 88.1
4. 93.2
5. 91.4
6. 90.1
7. 34.5
8. 63.1
